Would you kindly list CC50 for each of these compounds?
tested on: DU-145; experiment: NCI60 five-dose screen; assay type: cell-based; conditions: Homo sapiens; DU-145, prostate cancer; read-out: LC50 (the source's name)
Enter your answer as a number in µM; do not include the unit.

Exercise: For the compound `O=C(N/N=C/c1[nH]ccc1Cl)c1[nH]c2ccc(Br)cc2c1-c1ccccc1` , give its reported CC50.
Key: 33.1

Exercise: For the compound `Cc1[nH]c(/C=N/NC(=O)c2[nH]c3ccc(Br)cc3c2-c2ccccc2)c(C)c1[N+](=O)[O-]` , give its reported CC50.
Key: 34.9

Exercise: For the compound `CCc1cc[nH]c1/C=N/NC(=O)c1[nH]c2ccc(Br)cc2c1-c1ccccc1` , give its reported CC50.
Key: 42.3

Exercise: For the compound `CCOC(=O)c1c[nH]c(/C=N/NC(=O)c2[nH]c3ccc(Br)cc3c2-c2ccccc2)c1` , give its reported CC50.
Key: 35.6
